- target_under_test: GST-Rok (full length) (Bacillus subtilis subsp. subtilis str. …, UniProt O34857 1-191)
- Sequence: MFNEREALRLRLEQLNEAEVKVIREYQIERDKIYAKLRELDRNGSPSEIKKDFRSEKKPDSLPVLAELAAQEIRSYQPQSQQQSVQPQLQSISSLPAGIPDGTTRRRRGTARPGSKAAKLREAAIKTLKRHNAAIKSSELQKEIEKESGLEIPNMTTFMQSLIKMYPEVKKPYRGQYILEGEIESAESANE
- measurement_protocol: protein binding microarray; high values mean tight binding
- run_parameters: protein: recombinant; tags: GST (pTH5325, pDEST15-Magic modified); dsDNA, one strand shown
The full ranking holds about 33,000 sequences; the median of “e-score” is about -0.037, and the highest 2% start at about 0.34. Many of the other results were omitted from the sample, so the highest values are more common in it than they were.
Classification field: enter true (1) for binding signal values not below 0.2 E-score, false (0) for values below it.

primary_sequence	category_label
GAATAGAA	false (0)
GGTAGAAC	true (1)
GCAGTAGC	false (0)
TGTAGACA	false (0)
AACAGGCG	false (0)
GGTAGACA	false (0)
CGTAGAAA	true (1)
ATTAAGAA	false (0)
AAACCAAA	false (0)
GCAGTAGA	true (1)
CTATAGAA	true (1)
CTGTAGTA	true (1)
ATGTAGTG	true (1)
GGAATTAA	false (0)
AGCATGTC	false (0)
GGTCGCAA	false (0)
GGGTAGTA	true (1)
GTAATATA	true (1)
AGTACGTA	true (1)
GGTAGAAA	true (1)
CCAGTAGA	false (0)
ACCGGACC	false (0)
ATATAGAC	false (0)
ACATTAAA	false (0)
AAATAGAC	false (0)
AGGTAGTC	false (0)
CGGTAGTC	false (0)
ATATAGAG	true (1)
TGTAGAAA	true (1)
ATATAGAA	true (1)
AGGTTACG	false (0)
AAATAGAA	true (1)
TGATGTAA	false (0)
GTGTAGTA	true (1)
GCCTACTA	false (0)
TAGAAGAA	false (0)
ACGGCTTA	false (0)
ATATAGAT	true (1)
ATAATATG	true (1)
CGTAGAAG	false (0)
ATGTAGTA	true (1)
ATAGTAGC	true (1)
AGTTATGG	true (1)
GATAGAAC	true (1)
TGGCGCAA	false (0)
GTAATACA	true (1)

----------
- target_under_test: GST-Rok (full length) (Bacillus subtilis subsp. subtilis str. …, UniProt O34857 1-191)
- Sequence: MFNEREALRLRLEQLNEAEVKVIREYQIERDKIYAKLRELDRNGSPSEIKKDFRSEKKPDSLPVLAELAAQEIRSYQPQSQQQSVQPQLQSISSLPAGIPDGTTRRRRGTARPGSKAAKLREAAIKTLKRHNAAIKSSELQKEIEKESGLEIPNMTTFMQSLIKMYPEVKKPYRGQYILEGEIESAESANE
- measurement_protocol: protein binding microarray; Rok is a gene silencer of Bacillus subtilis; high values mean tight binding
- run_parameters: protein: recombinant; tags: GST (pTH5325, pDEST15-Magic modified); dsDNA, one strand shown
Whole data set: some 33,000 sequences, median “e-score” near -0.037, cut for the highest 2% near 0.34. This excerpt belongs to a sample that is enriched for the highest values.
The class of a record is decided solely by its measured binding signal; consult label 0: < 0.01 E-score; label 1: ≥ 0.01 E-score and < 0.3 E-score; label 2: ≥ 0.3 E-score

primary_sequence	category_label
ACCATCTC	label 0
AGTATCTC	label 1
ATTATCTC	label 0
CCGGTAAA	label 1
GGAAACGA	label 0
CCGGTATA	label 0
GGAAACTA	label 2
AAGGTAGT	label 2
CCTATCCA	label 0
CTTTACGA	label 1
ACGGTAGC	label 1
ACGGTAGT	label 2
CCTATCTA	label 2
ACGGTAAA	label 2
ACGGTATA	label 1
ACCATCTA	label 2
TCGGTAAA	label 1
GCGGTATA	label 2
ACGGTAGG	label 1
GACGACGC	label 0
CGAAACCA	label 0
